The values you see were collected from ChEMBL document CHEMBL1146073.

ASSAY_INFO: Half life in rat
Format: ADME, organism-based
STATED_CONDITIONS: in vivo
MEASURE_NAME: half-life (h)

- SMILES_RECORD: "Fc1cnc(-c2cc(-c3cnnc(-c4c(F)cncc4F)c3)ccc2F)c(F)c1"
  MEASURE_NAME: "half-life"
  RESULT_NUMBER: 1.6

(A) Fc1cnccc1-c1cc(-c2ccc(F)c(-c3ncccc3F)c2)cnn1
(B) Fc1cnc(-c2cc(-c3cnnc(-c4ccccc4F)c3)ccc2F)c(F)c1
(C) Fc1cnc(-c2cc(-c3ccc(F)c(-c4ncc(F)cc4F)c3)cnn2)c(F)c1
(D) Fc1cnc(-c2cc(-c3ccc(F)c(-c4ncccc4F)c3)cnn2)c(F)c1
Qu. Rank items: key half-life, increasing. In plain terms: list the labels in the order you were asked to.
Ans. A, B, D, C

====

ASSAY_INFO: Stability in dog assessed as liver microsomal turnover
Format: ADME, Canis lupus familiaris
STATED_CONDITIONS: liver microsomes, read-out: Stability
MEASURE_NAME: metabolised (%)

Guide cases for metabolised, answers given:
- SMILES_RECORD: "Fc1ccccc1-c1cc(-c2ccc(F)c(-c3ncccc3F)c2)cnn1"
  metabolised (%): 34
- SMILES_RECORD: "Fc1ccc(-c2cc(-c3ccc(F)c(-c4ncc(F)cc4F)c3)cnn2)cc1"
  metabolised (%): 20

(P) Fc1ccc(-c2cnnc(-c3c(F)cccc3F)c2)cc1-c1ncccc1F
(Q) Fc1ccc(-c2cnnc(-c3ncccc3F)c2)cc1-c1ncccc1F
(R) Fc1cnc(-c2cc(-c3cnnc(-c4c(F)cncc4F)c3)ccc2F)c(F)c1
Qu. Please rank these compounds by metabolised in descending order. Your answer should be the labels, listed in the requested order.
Ans. P, R, Q

====

ASSAY_INFO: Half life in dog
Assay type: ADME, organism-based, Canis lupus familiaris
STATED_CONDITIONS: in vivo
MEASURE_NAME: half-life (min)

(A) Fc1cnc(-c2cc(-c3ccc(F)c(-c4ncc(F)cc4F)c3)cnn2)c(F)c1
(B) Fc1cnc(-c2cc(-c3cnnc(-c4c(F)cncc4F)c3)ccc2F)c(F)c1
Qu. Which shows the larger half-life value: A or B ? Answer by stating the label of the chosen item.
Ans. A

====

TARGET_OR_TEST_SYSTEM: GABA-A receptor; alpha-2/beta-3/gamma-2 (Homo sapiens) (UniProt P18507+P28472+P47869)
ASSAY_INFO: Efficacy against recombinant human GABA-Aalpha2 plus beta-3-gamma-2 expressed in L(tk-) cells by whole cell patch clamp method relative to chlordiazepoxide
Assay type: functional, cell-based
MEASURE_NAME: Efficacy

- SMILES_RECORD: "Fc1cnc(-c2cc(-c3cnnc(-c4ccccc4F)c3)ccc2F)c(F)c1"
  Efficacy: 0.2
- SMILES_RECORD: "Fc1cnc(-c2cc(-c3ccc(F)c(-c4ncc(F)cc4F)c3)cnn2)c(F)c1"
  Efficacy: 0.12
- SMILES_RECORD: "Fc1cnccc1-c1cc(-c2ccc(F)c(-c3ncccc3F)c2)cnn1"
  Efficacy: 0.24
- SMILES_RECORD: "Fc1cnc(-c2cc(-c3cnnc(-c4c(F)cc(F)cc4F)c3)ccc2F)c(F)c1"
  Efficacy: 0.36

(1) Fc1cnc(-c2cc(-c3cnnc(-c4c(F)cncc4F)c3)ccc2F)c(F)c1
(2) Fc1cnc(-c2cc(-c3ccc(F)c(-c4ncccc4F)c3)cnn2)c(F)c1
Qu. So which one has the bigger Efficacy here, 1 or 2 ? Write down the label of the entry you select.
Ans. 2
(2: 0.43, 1: 0.28)
